# condition: 298.15 K; 101.33 kPa; Liquid
reported.property: mass density (kg/m3)

NC=O [formamide]
1129.11
CC(C)=O [acetone]
784.59
C[S+](C)[O-] [dimethyl sulfoxide]
1095.66
CN(C)C=O [dimethylformamide]
943.87
CC(=O)N(C)C [N,N-dimethylethanamide]
936.44
CNC=O [N-methylformamide]
998.97

###

# test.method.notes: refractive index (Na D-line) (dimensionless)
# condition: 298.15 K; 101.33 kPa; Liquid; Standard Abbe refractometry
reported.property: refractive index

CC(C)=O
1.3564
CC(=O)N(C)C [N,N-dimethylethanamide]
1.4362
C[S+](C)[O-] [dimethyl sulfoxide]
1.4771
CN(C)C=O [dimethylformamide]
1.4279
NC=O [formamide]
1.4463
CNC=O [N-methylformamide]
1.4303
